# System: Candida albicans
# Test description: Fungicidal activity against Candida albicans NCIM-3471 after 48 to 72 hrs by two fold serial macrodilution technique
# Type: functional
Quantity kind: MFC (µg/mL)
Report as a plain number; the unit µg/mL is understood.

> print(dat)
                                   compound  quantity.kind  number
1  O=C1CSC(c2ccc(Cl)cc2)N1c1ccc(Cl)cc1O (configuration not stated)            MFC     160
2  Cc1ncsc1C1SCC(=O)N1c1ccc(Cl)cc1O (configuration not stated)            MFC      45
3  O=C1CSC(c2cccs2)N1c1ccc(Cl)cc1O (configuration not stated)            MFC     160
4  O=C1CSC(c2ccc(F)cc2)N1c1ccc(Cl)cc1O (configuration not stated)            MFC     150
5  OC(Cn1cncn1)(Cn1cncn1)c1ccc(F)cc1F [FLUCONAZOLE]            MFC    22.5
6  O=C1CSC(c2ccc([N+](=O)[O-])cc2)N1c1ccc(Cl)cc1O (configuration not stated)            MFC     155

Moving on to another compound below.
input: Recall the recorded MFC for O=C1CSC(c2ccccn2)N1c1ccc(Cl)cc1O (configuration not stated) with Candida albicans and state it.
output: 155

====

MIC values by entry
# Tested on: Candida albicans
# Test description: Antimicrobial activity against Candida albicans NCIM-3471 after 20 hrs by two fold serial macrodilution technique
# Type: functional
# Experimental setup: NCIM-3471, 20 h
State the value with its unit after it.

> print(dat)
                                   compound    result
1  O=C1CSC(c2ccc([N+](=O)[O-])cc2)N1c1ccc(Cl)cc1O (configuration not stated)  95 µg/mL
2  O=C1CSC(c2ccc(O)cc2)N1c1ccc(Cl)cc1O (configuration not stated)  25 µg/mL
3  COc1ccc(C2SCC(=O)N2c2ccc(Cl)cc2O)cc1 (configuration not stated)  15 µg/mL

input: Recorded MIC for O=C1CSC(c2ccccn2)N1c1ccc(Cl)cc1O (configuration not stated) with Candida albicans, please?
output: 55 µg/mL

input: API: value(readout=MIC, system=Candida albicans) for record N#Cc1ccc(C2SCC(=O)N2c2ccc(Cl)cc2O)cc1 (configuration not stated)
output: 90 µg/mL

input: GET /values?readout=MIC&system=Candida albicans&item= Cc1ncsc1C1SCC(=O)N1c1ccc(Cl)cc1O (configuration not stated)
output: 30 µg/mL

input: Request: MIC, test system Candida albicans, entry OC(Cn1cncn1)(Cn1cncn1)c1ccc(F)cc1F
output: 10 µg/mL

====

# Test system: Candida albicans
# Test description: Fungicidal activity against Candida albicans NCIM-3471 after 48 to 72 hrs by two fold serial macrodilution technique
# Type: functional
# label = Satisfied if MFC < 40 µg/mL else Not satisfied

Example entries and their recorded answers appear below.
> print(dat)
                                   compound  classification
1  O=C1CSC(c2cccc(F)c2)N1c1ccc(Cl)cc1O (stereo not given)   Not satisfied
2  COc1ccc(C2SCC(=O)N2c2ccc(Cl)cc2O)cc1 (stereo not given)       Satisfied
3  Clc1ccc(COC(Cn2ccnc2)c2ccc(Cl)cc2Cl)c(Cl)c1 (stereo not given)       Satisfied

Alright, here's another compound for you.
input: Determine if O=C1CSC(c2ccccc2Cl)N1c1ccc(Cl)cc1O (stereo not given) shows MFC strictly lower than 40 µg/mL.
output: Not satisfied
